Target: S-adenosylmethionine decarboxylase proenzyme (Homo sapiens, UniProt P17707)
Sequence (P17707 1-67 limits assumed): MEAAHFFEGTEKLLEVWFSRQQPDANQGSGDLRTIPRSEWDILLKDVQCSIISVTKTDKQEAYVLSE
Sequence (P17707 68-334 limits assumed): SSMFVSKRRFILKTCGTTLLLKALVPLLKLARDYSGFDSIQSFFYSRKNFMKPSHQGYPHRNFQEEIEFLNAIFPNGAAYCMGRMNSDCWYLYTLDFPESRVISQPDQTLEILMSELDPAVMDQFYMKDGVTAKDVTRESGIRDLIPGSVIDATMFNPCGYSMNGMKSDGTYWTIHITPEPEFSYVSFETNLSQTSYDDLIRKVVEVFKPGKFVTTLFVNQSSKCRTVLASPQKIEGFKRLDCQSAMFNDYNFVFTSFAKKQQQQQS
OBSERVED_PROPERTY: pKi
Numbers only, as −log10 of the molar value.

*Q* Requested field: pKi. Item: C[S+](CCC(N)C#N)C[C@H]1O[C@@H](n2cnc3c(N)ncnc32)[C@H](O)[C@@H]1O (stereo partly specified)
*A* 3.61
